Origin of the recorded values: patent US20040086901A1

- System: NIH3T3 cells overexpressing TK
- protocol.notes: MTT cell viability, TK overexpressing cells vs parental line
- Format: cell-based, mouse
- study.conditions: TK high-expressing cells / parental cell line, 3 to 4 days
Non-standard residues stand in square brackets, D forms with d. Residues, ends and D or L forms follow the SMILES beside them. Nle = CCCC[C@H](N)C(=O)O
readout.type: logarithmic value of ratio of IC40 values
Response field accepts a number only; no unit should be typed.

For this compound ( C=C[C@@]1(C)CC(=O)[C@]2(O)[C@@]3(C)[C@@H](O)CCC(C)(C)[C@@H]3[C@H](O)[C@H](OC(C)=O)[C@@]2(C)O1 ), measured logarithmic value of ratio of IC40 values is 0.56

The recorded logarithmic value of ratio of IC40 values for entry Nc1nc2nc[nH]c2c(=S)[nH]1 equals −0.17

Briefly, logarithmic value of ratio of IC40 values measured for C[C@@H]1O[C@@H](O[C@H]2C[C@@H](O)[C@]3(CO)[C@H]4[C@H](O)C[C@]5(C)[C@@H](C6=CC(=O)OC6)CC[C@]5(O)[C@@H]4CC[C@]3(O)C2)[C@H](O)[C@H](O)[C@H]1O : 0.00

// CCCC[C@@H](C=O)NC(=O)[C@H](CC(C)C)NC(=O)[C@H](CC(C)C)NC(C)=O [ALLN] (Ac-Leu-Leu-[Nle]-aldehyde) : logarithmic value of ratio of IC40 values value = 0.00

logarithmic value of ratio of IC40 values reported for this compound CN[C@@H]1C[C@H]2O[C@@](C)([C@@H]1OC)n1c3ccccc3c3c4c(c5c6ccccc6n2c5c31)C(=O)NC4 : 0.46

CC(=O)OCOC(=O)CN(CC(=O)OCOC(C)=O)c1ccccc1OCCOc1ccccc1N(CC(=O)OCOC(C)=O)CC(=O)OCOC(C)=O has a reported logarithmic value of ratio of IC40 values of 0.00

# compound C/C=C(/C)C(=O)O[C@H]1C(C)=C2[C@H]([C@@H]1OC(=O)CCCCCCC)[C@@](C)(OC(C)=O)C[C@H](OC(=O)CCC)[C@@]1(O)[C@H]2OC(=O)[C@@]1(C)O ; its logarithmic value of ratio of IC40 values = 0.06

Form: compound = CC(C)(C)C(=O)Oc1ccc(S(=O)(=O)Nc2ccccc2C(=O)NCC(=O)O)cc1 ; logarithmic value of ratio of IC40 values = −0.24

response.value for O=CN/C=C/c1cc(O)ccc1O (field: logarithmic value of ratio of IC40 values) = 0.05

Summary for this compound, O=c1c(-c2ccc(O)cc2)coc2cc(O)cc(O)c12 : logarithmic value of ratio of IC40 values is 0.08

---

- Test system: NIH3T3 cells overexpressing CaMKIIa-Active
- protocol.notes: MTT cell viability, CaMKIIa-Active overexpressing cells vs parental line
- Assay type: cell-based, mouse
- study.conditions: CaMKIIa-Active high-expressing cells / parental cell line, 3 to 4 days
readout.type: logarithmic value of ratio of IC40 values

Simply: C=CC1=C(C)c2cc3[n-]c(cc4nc(cc5[n-]c(cc1n2)c(C)c5CCC(=O)O)C(CCC(=O)O)=C4C)c(C)c3C=C.[Cl-].[Cl-].[Sn+4] , NIH3T3 cells overexpressing CaMKIIa-Active, logarithmic value of ratio of IC40 values = 0.30

Measured logarithmic value of ratio of IC40 values for this entry O=[As]O [NaAsO2, sodium arsenite] on NIH3T3 cells overexpressing CaMKIIa-Active: 0.02

// logarithmic value of ratio of IC40 values (NIH3T3 cells overexpressing CaMKIIa-Active) for CNc1ccc2oc(C[C@H]3O[C@@]4(CC[C@H]3C)O[C@H]([C@H](C)C(=O)c3ccc[nH]3)[C@H](C)C[C@H]4C)nc2c1C(=O)O = 0.18

Field logarithmic value of ratio of IC40 values (NIH3T3 cells overexpressing CaMKIIa-Active), entry CO[C@H]1[C@@H](OC)C[C@H](C)[C@@H](OC)C2=CC(=O)C=C(NC(=O)/C(C)=C/C=C\[C@H](OC)[C@@H](OC(N)=O)/C(C)=C/[C@@H]1C)C2=O : 0.51

logarithmic value of ratio of IC40 values for NIH3T3 cells overexpressing CaMKIIa-Active with input COc1ccc2c(c1)CC[C@@H]1[C@@H]2CC[C@]2(C)[C@@H](NCCCCCCN3C(=O)C=CC3=O)CC[C@@H]12 equals 0.00

Sample CCCC[C@@H](C)/C=C(C)/C=C(\C)C(=O)NC1=C[C@@](O)(/C=C/C=C/C=C/C(=O)NC2=C(O)CCC2=O)[C@@H]2O[C@@H]2C1=O , system: NIH3T3 cells overexpressing CaMKIIa-Active. Its logarithmic value of ratio of IC40 values is 0.03

Observed logarithmic value of ratio of IC40 values, NIH3T3 cells overexpressing CaMKIIa-Active, C[C@@H]1C[C@@H]([C@H](O)CC2CC(=O)NC(=O)C2)C(=O)[C@@H](C)C1 [CHX, cycloheximide] : −0.09

Item C=C1[C@@H](O)[C@@H]2O[C@]3(CC[C@H](/C=C/[C@@H](C)[C@@H]4CC(C)=C[C@@]5(O[C@H](C[C@@](C)(O)C(=O)O)CC[C@H]5O)O4)O3)CC[C@H]2O[C@@H]1[C@@H](O)C[C@H](C)[C@H]1O[C@@]2(CCCCO2)CC[C@H]1C ; assay system NIH3T3 cells overexpressing CaMKIIa-Active; logarithmic value of ratio of IC40 values reported as 0.14
